Field: pKd. Provide a value for each of the binders that follow.
target-of-assay: T1, biotin-labeled mouse ADM (mouse, not fully specified; biotin label (named mouse ADM-C-biotin in Example 1.4; position of the biotin not stated for the other lots))
T1 construct: Synthetic peptide; also called mouse ADM-C-biotin; mADM-Biotin
T1 peptide: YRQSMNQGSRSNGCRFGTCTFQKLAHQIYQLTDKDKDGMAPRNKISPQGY
run-description: BLI (Octet RED96e), as in Example 3
Numbers only, as −log10 of the molar value.

- binder: "Ab2004.Am35 (IgG1 antibody) (antibody, V domains shown, Expressed in CHO cells, human IgG1/kappa) VH: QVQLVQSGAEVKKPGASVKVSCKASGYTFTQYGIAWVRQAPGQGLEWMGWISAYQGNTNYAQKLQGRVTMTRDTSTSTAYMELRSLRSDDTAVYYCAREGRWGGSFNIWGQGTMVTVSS VL: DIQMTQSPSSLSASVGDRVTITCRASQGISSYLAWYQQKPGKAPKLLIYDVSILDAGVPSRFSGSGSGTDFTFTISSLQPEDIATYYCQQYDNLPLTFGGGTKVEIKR"
  pKd: 9.34
- binder: "Ab2004.Am36 (IgG1 antibody) (antibody, V domains shown, Expressed in CHO cells, human IgG1/kappa) VH: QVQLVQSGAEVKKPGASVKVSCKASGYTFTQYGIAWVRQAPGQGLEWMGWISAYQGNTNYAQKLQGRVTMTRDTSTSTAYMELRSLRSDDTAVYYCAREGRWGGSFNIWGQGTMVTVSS VL: DIQMTQSPSSLSASVGDRVTITCRASQGISSYLAWYQQKPGKAPKLLIYDASNVDTGVPSRFSGSGSGTDFTFTISSLQPEDIATYYCQQYDNLPLTFGGGTKVEIKR"
  pKd: 9.29

# next binder below
Query: pKd; subject: Ab2004.Am32 (IgG1 antibody) (antibody, V domains shown, Expressed in CHO cells, human IgG1/kappa) VH: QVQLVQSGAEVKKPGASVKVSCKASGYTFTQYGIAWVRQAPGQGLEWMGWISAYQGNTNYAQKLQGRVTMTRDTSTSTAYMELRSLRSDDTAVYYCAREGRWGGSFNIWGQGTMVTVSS VL: DIQMTQSPSSLSASVGDRVTITCRAAEGIGSYLAWYQQKPGKAPKLLIYDASNLETGVPSRFSGSGSGTDFTFTISSLQPEDIATYYCQQYDNLPLTFGGGTKVEIKR
9.32
